assay: isobaric coefficient of expansion; settings: 298.15 K; 20000 kPa; Liquid; Micro DSCII
Consider the following molecules; for each one, report its isobaric coefficient of expansion.

Guide cases for isobaric coefficient of expansion, answers given:
CCCCn1cc[n+](C)c1.O=S(=O)([O-])C(F)(F)F [1-butyl-3-methylimidazolium trifluoromethanesulfonate]: 0.000588 1/K
CCCCn1cc[n+](C)c1.[F][Sb-]([F])([F])([F])([F])[F] [1-butyl-3-methylimidazolium hexafluoroantimonate]: 0.000602 1/K
CCCCn1cc[n+](C)c1.F[B-](F)(F)F [1-butyl-3-methylimidazolium tetrafluoroborate]: 0.000575 1/K
CCCCn1cc[n+](C)c1.COS(=O)(=O)[O-] [1-butyl-3-methylimidazolium methyl sulfate]: 0.000533 1/K

Field: next molecule
Per the record, `CCCC[n+]1ccn(C)c1.O=S(=O)([N-]S(=O)(=O)C(F)(F)F)C(F)(F)F` has isobaric coefficient of expansion of 0.000633 1/K

====

assay: isobaric coefficient of expansion; settings: 278.15 K; 15000 kPa; Liquid; Micro DSCII
measured endpoint: isobaric coefficient of expansion

Worked cases, isobaric coefficient of expansion given:
CCCCn1cc[n+](C)c1.COS(=O)(=O)[O-] [1-butyl-3-methylimidazolium methyl sulfate]: 0.00055 1/K
CCCC[n+]1ccn(C)c1.O=S(=O)([N-]S(=O)(=O)C(F)(F)F)C(F)(F)F: 0.000651 1/K
CCCCn1cc[n+](C)c1.[F][Sb-]([F])([F])([F])([F])[F] [1-butyl-3-methylimidazolium hexafluoroantimonate]: 0.000619 1/K
CCCCn1cc[n+](C)c1.F[B-](F)(F)F [1-butyl-3-methylimidazolium tetrafluoroborate]: 0.000592 1/K

In the following, a different compound is considered.
isobaric coefficient of expansion reported for this compound CCCCn1cc[n+](C)c1.O=S(=O)([O-])C(F)(F)F [1-butyl-3-methylimidazolium trifluoromethanesulfonate] : 0.000603 1/K

====

assay: isobaric coefficient of expansion; details: 348.15 K; 5000 kPa; Liquid; Micro DSCII
Provide the recorded isobaric coefficient of expansion for the entries that follow.

Worked cases, answers included:
CCCC[n+]1ccn(C)c1.O=S(=O)([N-]S(=O)(=O)C(F)(F)F)C(F)(F)F: 0.000653 1/K
CCCCn1cc[n+](C)c1.[F][Sb-]([F])([F])([F])([F])[F] [1-butyl-3-methylimidazolium hexafluoroantimonate]: 0.000602 1/K
CCCCn1cc[n+](C)c1.COS(=O)(=O)[O-] [1-butyl-3-methylimidazolium methyl sulfate]: 0.000527 1/K

For every listed record, write down its isobaric coefficient of expansion.
1. CCCCn1cc[n+](C)c1.F[B-](F)(F)F [1-butyl-3-methylimidazolium tetrafluoroborate]
2. CCCCn1cc[n+](C)c1.O=S(=O)([O-])C(F)(F)F [1-butyl-3-methylimidazolium trifluoromethanesulfonate]

1. 0.000569 1/K
2. 0.000591 1/K

====

test: isobaric coefficient of expansion; details: 348.15 K; 15000 kPa; Liquid; Micro DSCII
measured endpoint: isobaric coefficient of expansion

Here's what some known entries look like.
CCCCn1cc[n+](C)c1.[F][Sb-]([F])([F])([F])([F])[F] [1-butyl-3-methylimidazolium hexafluoroantimonate]: 0.000588 1/K
CCCCn1cc[n+](C)c1.O=S(=O)([O-])C(F)(F)F [1-butyl-3-methylimidazolium trifluoromethanesulfonate]: 0.000574 1/K
CCCCn1cc[n+](C)c1.F[B-](F)(F)F [1-butyl-3-methylimidazolium tetrafluoroborate]: 0.000557 1/K
CCCCn1cc[n+](C)c1.COS(=O)(=O)[O-] [1-butyl-3-methylimidazolium methyl sulfate]: 0.000517 1/K

Read the next record carefully.
The reported isobaric coefficient of expansion of the molecule `CCCC[n+]1ccn(C)c1.O=S(=O)([N-]S(=O)(=O)C(F)(F)F)C(F)(F)F` was 0.000623 1/K

====

experiment: isobaric coefficient of expansion; conditions: 348.15 K; 25000 kPa; Liquid; Micro DSCII
Provide the recorded isobaric coefficient of expansion for the entries that follow.

Past entries and their recorded results:
CCCC[n+]1ccn(C)c1.O=S(=O)([N-]S(=O)(=O)C(F)(F)F)C(F)(F)F: 0.000604 1/K
CCCCn1cc[n+](C)c1.COS(=O)(=O)[O-] [1-butyl-3-methylimidazolium methyl sulfate]: 0.000506 1/K
CCCCn1cc[n+](C)c1.O=S(=O)([O-])C(F)(F)F [1-butyl-3-methylimidazolium trifluoromethanesulfonate]: 0.000559 1/K
CCCCn1cc[n+](C)c1.F[B-](F)(F)F [1-butyl-3-methylimidazolium tetrafluoroborate]: 0.000545 1/K

Now look at this entry.
Query CCCCn1cc[n+](C)c1.[F][Sb-]([F])([F])([F])([F])[F] [1-butyl-3-methylimidazolium hexafluoroantimonate] yields isobaric coefficient of expansion of 0.000574 1/K

====

test: isobaric coefficient of expansion; conditions: 308.15 K; 20000 kPa; Liquid; Micro DSCII
Would you mind telling me the reported isobaric coefficient of expansion of each entry?

CCCCn1cc[n+](C)c1.COS(=O)(=O)[O-] [1-butyl-3-methylimidazolium methyl sulfate]: 0.000527 1/K
CCCCn1cc[n+](C)c1.[F][Sb-]([F])([F])([F])([F])[F] [1-butyl-3-methylimidazolium hexafluoroantimonate]: 0.000596 1/K
CCCCn1cc[n+](C)c1.O=S(=O)([O-])C(F)(F)F [1-butyl-3-methylimidazolium trifluoromethanesulfonate]: 0.000581 1/K
CCCC[n+]1ccn(C)c1.O=S(=O)([N-]S(=O)(=O)C(F)(F)F)C(F)(F)F: 0.000627 1/K

Entry CCCCn1cc[n+](C)c1.F[B-](F)(F)F [1-butyl-3-methylimidazolium tetrafluoroborate] — recorded isobaric coefficient of expansion = 0.000569 1/K

====

What isobaric coefficient of expansion was measured for each of the following?
experiment: isobaric coefficient of expansion; conditions: 348.15 K; 50000 kPa; Liquid; Micro DSCII

Hello, I would appreciate it if you could give isobaric coefficient of expansion for each entry below.
1. CCCCn1cc[n+](C)c1.F[B-](F)(F)F [1-butyl-3-methylimidazolium tetrafluoroborate]
2. CCCC[n+]1ccn(C)c1.O=S(=O)([N-]S(=O)(=O)C(F)(F)F)C(F)(F)F
3. CCCCn1cc[n+](C)c1.O=S(=O)([O-])C(F)(F)F [1-butyl-3-methylimidazolium trifluoromethanesulfonate]
4. CCCCn1cc[n+](C)c1.[F][Sb-]([F])([F])([F])([F])[F] [1-butyl-3-methylimidazolium hexafluoroantimonate]
5. CCCCn1cc[n+](C)c1.COS(=O)(=O)[O-] [1-butyl-3-methylimidazolium methyl sulfate]

["0.00052 1/K", "0.000563 1/K", "0.00053 1/K", "0.000542 1/K", "0.000486 1/K"]

====

assay: isobaric coefficient of expansion; conditions: 278.15 K; 35000 kPa; Liquid; Micro DSCII
measured endpoint: isobaric coefficient of expansion

CCCCn1cc[n+](C)c1.COS(=O)(=O)[O-] [1-butyl-3-methylimidazolium methyl sulfate]: 0.000531 1/K
CCCCn1cc[n+](C)c1.O=S(=O)([O-])C(F)(F)F [1-butyl-3-methylimidazolium trifluoromethanesulfonate]: 0.000579 1/K
CCCC[n+]1ccn(C)c1.O=S(=O)([N-]S(=O)(=O)C(F)(F)F)C(F)(F)F: 0.000618 1/K
CCCCn1cc[n+](C)c1.F[B-](F)(F)F [1-butyl-3-methylimidazolium tetrafluoroborate]: 0.000571 1/K

Here is the next item to consider.
isobaric coefficient of expansion recorded for this compound, CCCCn1cc[n+](C)c1.[F][Sb-]([F])([F])([F])([F])[F] [1-butyl-3-methylimidazolium hexafluoroantimonate] , is 0.000593 1/K

====

Record form. Attribute: isobaric coefficient of expansion. Fill in for each entry.
assay: isobaric coefficient of expansion; details: 338.15 K; 50000 kPa; Liquid; Micro DSCII

CCCC[n+]1ccn(C)c1.O=S(=O)([N-]S(=O)(=O)C(F)(F)F)C(F)(F)F: 0.000566 1/K
CCCCn1cc[n+](C)c1.O=S(=O)([O-])C(F)(F)F [1-butyl-3-methylimidazolium trifluoromethanesulfonate]: 0.000532 1/K
CCCCn1cc[n+](C)c1.[F][Sb-]([F])([F])([F])([F])[F] [1-butyl-3-methylimidazolium hexafluoroantimonate]: 0.000545 1/K
CCCCn1cc[n+](C)c1.F[B-](F)(F)F [1-butyl-3-methylimidazolium tetrafluoroborate]: 0.000522 1/K

Now consider the entry below.
Item: CCCCn1cc[n+](C)c1.COS(=O)(=O)[O-] [1-butyl-3-methylimidazolium methyl sulfate] | isobaric coefficient of expansion: 0.000489 1/K

====

experiment: isobaric coefficient of expansion; conditions: 288.15 K; 45000 kPa; Liquid; Micro DSCII
For each of the compounds below, state its isobaric coefficient of expansion.

CCCC[n+]1ccn(C)c1.O=S(=O)([N-]S(=O)(=O)C(F)(F)F)C(F)(F)F: 0.000599 1/K
CCCCn1cc[n+](C)c1.COS(=O)(=O)[O-] [1-butyl-3-methylimidazolium methyl sulfate]: 0.000514 1/K
CCCCn1cc[n+](C)c1.O=S(=O)([O-])C(F)(F)F [1-butyl-3-methylimidazolium trifluoromethanesulfonate]: 0.000561 1/K
CCCCn1cc[n+](C)c1.F[B-](F)(F)F [1-butyl-3-methylimidazolium tetrafluoroborate]: 0.000555 1/K

Looking up CCCCn1cc[n+](C)c1.[F][Sb-]([F])([F])([F])([F])[F] [1-butyl-3-methylimidazolium hexafluoroantimonate] , I found its isobaric coefficient of expansion recorded as 0.000575 1/K
